test: Lipophilicity, log D of the compound; format: physicochemical; conditions: octanol/water
readout label: logD

P = Cc1nccn1-c1ccc(CNS(=O)(=O)c2cc(F)ccc2F)cc1F
Q = Cc1noc(C)c1S(=O)(=O)NCc1ccc(-c2ccccc2)cc1
I'd appreciate it if you could identify which of P and Q has the greater logD. Answer = label.
Q

---

assay: Apparent permeability across dog RRCK cells; format: ADME, cell-based, Canis lupus familiaris, MDCKII-LE; settings: MDCK
readout label: Papp (×10⁻⁶ cm/s)
Field format: number, assumed ×10⁻⁶ cm/s, no unit text.

Form field: reported Papp of Cc1cn(-c2ccc(CNS(=O)(=O)c3cc(F)ccc3F)cc2)c(C)n1
15.4
